# System: K562 CRISPRi cells
# ASSAY_TEXT: Constant region variant library pooled growth screen, K562
# Type: cell-based, human
# DETAILS: sgRNA constant region variants; activity relative to the original, un-modified constant region cr995
// classify: if (Mean relative activity < 0.8) Met else Not met

Answered cases to consult:
cr450 (nucleic acid, listed as DNA, chemistry not fully specified) guide: GTTTAAGAGCTAAGCTGGAAACAGCATAGCAAGTTTAAATAAGGCTAGTCCGTTATCAACTTGAGAAAGTGGCGCCGAGTCGGCGCT ... Not met
cr289 (nucleic acid, listed as DNA, chemistry not fully specified) guide: GTTTAAGAGCTAAGCTGGAAACAGCATAGCAAGTTTAAATAAGGCTAGTCCGTTATCAACTGGAAACAGTGGCACCGAGTCGGTGCT ... Not met
cr435 (nucleic acid, listed as DNA, chemistry not fully specified) guide: GTTTAAGAGCTAAGCTGGAAACAGCATAGCCAGTTTAAATAAGGCTAGTCCGGTATCAACTTGAAAAAGTGGCACCGAGTCGGTGCT ... Not met
cr575 (nucleic acid, listed as DNA, chemistry not fully specified) guide: GTTTAAGAGCTAAGCTGGAAACAGCATAGCAAGTTTAAATAAGGCTAGTCCGTTATCAACTTGAAAAAGTGGCACGGAGTCGGTGCT ... Met
cr650 (nucleic acid, listed as DNA, chemistry not fully specified) guide: GTTTAAGAGCTAAGCTGGAAACAGCATAGCAAGTTTAAATAAGGCTAGTCCGTTATGAACTTGAAAAAGTGGCACCGAGTCGGTGCT ... Met

Query :: Given the entry cr356 (nucleic acid, listed as DNA, chemistry not fully specified) guide: GTTTAAGAGCTAAGCTGGAAACAGCATAGCAAGTTTAAATAAGGCTAGTCCGTTATCACCTTGAAAAAGGGACACCGAGTCGGTGTT , would its reported Mean relative activity be below 0.8?
Result :: Not met

Query :: Given the entry cr751 (nucleic acid, listed as DNA, chemistry not fully specified) guide: GTTTAAGAGCTAAGCTGGAAACAGCATCGCAACTTTAAATAAGGCTAGTCCTTTATCAACTTGAAAAAGTGGCACCGAGTCGGTGCT , would its reported Mean relative activity be below 0.8?
Result :: Met

Query :: Given the entry cr899 (nucleic acid, listed as DNA, chemistry not fully specified) guide: GTTTAAGAGCTAAGCTGGAAACAGCATAGCAAGTTTAAATAAGACTAGTTCGTTATCAGCTTGAAAAAGCGGTACCGAGTCGGTACT , would its reported Mean relative activity be below 0.8?
Result :: Not met

Query :: Given the entry cr169 (nucleic acid, listed as DNA, chemistry not fully specified) guide: GTTTAAGAGCTAAGCTGGAAACAGCATAGCAAGTTTAAATAAGGCTAGTCCGTTATCAACTTGAGAAAGTGGCACCGAGCCGGTGCT , would its reported Mean relative activity be below 0.8?
Result :: Not met

Query :: Given the entry cr946 (nucleic acid, listed as DNA, chemistry not fully specified) guide: GTTTAAGAGCTAAGCTGGAAACAGCATAGCAAGTTTAAATAACGCTAGTCGGTTATCAACTGGAAACAGTGGCGCCGAGTCGGCGCT , would its reported Mean relative activity be below 0.8?
Result :: Met
